- TESTED ON: Alpha-1A adrenergic receptor (Homo sapiens) (UniProt P35348)
- Sequence (P35348 whole entry): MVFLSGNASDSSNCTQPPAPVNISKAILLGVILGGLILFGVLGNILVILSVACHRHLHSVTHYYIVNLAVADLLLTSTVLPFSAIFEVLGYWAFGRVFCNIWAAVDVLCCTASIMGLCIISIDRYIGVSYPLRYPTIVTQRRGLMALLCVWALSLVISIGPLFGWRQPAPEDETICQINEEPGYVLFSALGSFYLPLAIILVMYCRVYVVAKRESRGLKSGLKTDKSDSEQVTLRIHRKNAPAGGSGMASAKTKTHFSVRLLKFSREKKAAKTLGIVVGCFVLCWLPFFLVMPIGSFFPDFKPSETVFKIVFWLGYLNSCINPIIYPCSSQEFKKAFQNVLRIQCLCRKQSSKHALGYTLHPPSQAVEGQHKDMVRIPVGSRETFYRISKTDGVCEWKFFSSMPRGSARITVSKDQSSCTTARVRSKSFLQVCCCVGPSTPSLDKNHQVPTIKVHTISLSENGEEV
- ASSAY PROCEDURE: Displacement of [3H]prazosin from recombinant human alpha 1A adrenoceptor extracted from CHO cell membrane at 1 nM incubated for 60 mins by radioligand binding assay relative to control
- Format: cell membranes
QUANTITY: inhibition

ENTRY SMILES	RESULT
Fc1cccc(N2CCN(CCCCn3cnc4ccccc43)CC2)c1	-3.72%
FC(F)(F)c1cccc(N2CCN(CCCCn3nnc4ccccc43)CC2)c1	-5.08%
FC(F)(F)c1cccc(N2CCN(CCCCn3cnc4ccccc43)CC2)c1	-1.42%
Fc1ccc2c(N3CCN(CCCn4nc5ccccc5n4)CC3)noc2c1	29.5%
Fc1ccc2c(C3CCN(CCCn4nc5ccccc5n4)CC3)noc2c1	28.9%
Fc1cccc(N2CCN(CCCCn3nnc4ccccc43)CC2)c1	-7.76%
FC(F)(F)c1cccc(N2CCN(CCCCCn3nc4ccccc4n3)CC2)c1	8.76%
Cc1nc2ccccc2n1CCCCN1CCN(c2cccc(C(F)(F)F)c2)CC1	6.89%
